# test_system: CDK2/CycA2 (Homo sapiens)
# measurement_description: CDK2 kinase activity inhibition assay (caliper mobility shift)
# recorded_conditions: CDK2/CycA2 12 nM, ATP 39 μM; read-out: CDK2 kinase inhibitory activity (IC50)
quantity_measured: IC50

- CC(=O)c1c(C)c2cnc(Nc3ccc4c(c3)OC[C@@H]3CN(C5CCNCC5)CCN43)nc2n(C2CCCC2)c1=O: < 100 nM
- CC(=O)c1c(C)c2cnc(Nc3ccc4c(c3)OC[C@@H]3CN(C5CCN(CC(F)(F)F)CC5)CCN43)nc2n(C2CCCC2)c1=O [Compound 16S]: < 500 nM
- CC(=O)c1c(C)c2cnc(Nc3ccc4c(c3)OC[C@H]3CN(C5CCN(C)CC5)CCN43)nc2n(C2CCCC2)c1=O: < 100 nM

Quote IC50 with test system CDK2/CycA2 (Homo sapiens) for CC(=O)c1c(C)c2cnc(Nc3ccc4c(c3)OC[C@@H]3CN(C5CCN(C(C)=O)CC5)CCN43)nc2n(C2CCCC2)c1=O
< 100 nM

# return IC50 of CC(=O)c1c(C)c2cnc(Nc3ccc4c(c3)N3CCN(C5CCN(C(C)=O)CC5)C[C@H]3CO4)nc2n(C2CCCC2)c1=O [Compound 21S] (system: CDK2/CycA2 (Homo sapiens))
< 500 nM

---

# measurement_description: in vivo
# recorded_conditions: male, SD, rat, po, 3 mg/kg
quantity_measured: Tmax (h)
Give a bare numeral; the unit h is implied.

Look up Tmax of CC(=O)c1c(C)c2cnc(Nc3ccc4c(c3)OC[C@@H]3CN(C5CCN(C)CC5)CCN43)nc2n(C2CCCC2)c1=O and report it.
13.3

---

# test_system: CDK6/cycD3 (Homo sapiens)
# Sequence (Q00534 whole entry): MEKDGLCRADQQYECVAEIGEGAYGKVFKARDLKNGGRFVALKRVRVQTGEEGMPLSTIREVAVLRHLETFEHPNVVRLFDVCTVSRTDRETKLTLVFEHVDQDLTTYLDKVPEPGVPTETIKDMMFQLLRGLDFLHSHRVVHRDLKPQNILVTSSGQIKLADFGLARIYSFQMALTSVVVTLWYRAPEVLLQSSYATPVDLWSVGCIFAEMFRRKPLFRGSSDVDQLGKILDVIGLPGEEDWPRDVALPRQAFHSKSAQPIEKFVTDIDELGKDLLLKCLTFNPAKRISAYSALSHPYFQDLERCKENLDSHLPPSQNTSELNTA
# Sequence (P30281 whole entry partner): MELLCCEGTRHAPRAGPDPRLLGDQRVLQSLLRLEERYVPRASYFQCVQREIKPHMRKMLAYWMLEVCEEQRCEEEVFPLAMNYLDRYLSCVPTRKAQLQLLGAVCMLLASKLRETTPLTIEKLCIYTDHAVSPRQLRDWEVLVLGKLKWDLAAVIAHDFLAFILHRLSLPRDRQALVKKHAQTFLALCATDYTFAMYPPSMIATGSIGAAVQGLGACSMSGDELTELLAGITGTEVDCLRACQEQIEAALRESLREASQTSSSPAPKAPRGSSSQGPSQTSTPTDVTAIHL
# measurement_description: CDK6 kinase activity inhibition assay (caliper mobility shift)
# recorded_conditions: CDK6/cycD3 15 nM, ATP 800 μM; read-out: CDK6 kinase inhibitory activity (IC50)
pIC50: −log10 of the molar value.
Form field: pIC50 (one value per entry).

Use these answered entries as a reference point.
- CC(=O)c1c(C)c2cnc(Nc3ccc4c(c3)OC[C@@H]3CN(C5CN(C(C)=O)C5)CCN43)nc2n(C2CCCC2)c1=O [Compound 11S]: > 7.70
- CC(=O)c1c(C)c2cnc(Nc3ccc4c(c3)OC[C@H]3CN(C5CCN(C)CC5)CCN43)nc2n(C2CCCC2)c1=O: > 8.00

Recall and state the measured pIC50 for CC(=O)c1c(C)c2cnc(Nc3cc(C)c4c(c3)OC[C@@H]3CN(C5CCN(C)CC5)CCN43)nc2n(C2CCCC2)c1=O .
> 7.00

Tell me measured pIC50 for CC(=O)c1c(C)c2cnc(Nc3ccc4c(c3)OC[C@H]3CN(C5CCN(C(C)=O)CC5)CCN43)nc2n(C2CCCC2)c1=O please.
> 7.70

Identify measured pIC50 associated with CC(=O)c1c(C)c2cnc(Nc3ccc4c(c3)OC[C@H]3CN(C5CCNCC5)CCN43)nc2n(C2CCCC2)c1=O
> 8.00

Give recorded pIC50. CC(=O)c1c(C)c2cnc(Nc3ccc4c(c3)OC[C@@H]3CN(C5CCN(C(C)=O)CC5)CCN43)nc2n(C2CCCC2)c1=O
> 8.00

---

Each record here notes measured IC50.
# test_system: CDK16/CycY (Homo sapiens, UniProt Q00536)
# Sequence (Q00536 whole entry): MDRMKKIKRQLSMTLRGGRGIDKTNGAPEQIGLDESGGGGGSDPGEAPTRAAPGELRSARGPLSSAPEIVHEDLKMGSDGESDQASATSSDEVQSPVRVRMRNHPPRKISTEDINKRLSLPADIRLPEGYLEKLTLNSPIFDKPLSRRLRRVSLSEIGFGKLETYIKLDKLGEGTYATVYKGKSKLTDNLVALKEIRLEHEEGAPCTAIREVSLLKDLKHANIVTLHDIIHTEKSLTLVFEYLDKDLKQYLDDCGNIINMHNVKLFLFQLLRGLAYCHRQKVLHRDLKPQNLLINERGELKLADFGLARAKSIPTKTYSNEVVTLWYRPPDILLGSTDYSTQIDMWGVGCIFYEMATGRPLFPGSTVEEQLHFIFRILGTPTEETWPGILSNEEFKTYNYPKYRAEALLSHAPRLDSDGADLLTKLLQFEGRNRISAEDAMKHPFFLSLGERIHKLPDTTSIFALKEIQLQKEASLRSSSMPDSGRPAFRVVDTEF
# Sequence (Q8ND76 whole entry partner): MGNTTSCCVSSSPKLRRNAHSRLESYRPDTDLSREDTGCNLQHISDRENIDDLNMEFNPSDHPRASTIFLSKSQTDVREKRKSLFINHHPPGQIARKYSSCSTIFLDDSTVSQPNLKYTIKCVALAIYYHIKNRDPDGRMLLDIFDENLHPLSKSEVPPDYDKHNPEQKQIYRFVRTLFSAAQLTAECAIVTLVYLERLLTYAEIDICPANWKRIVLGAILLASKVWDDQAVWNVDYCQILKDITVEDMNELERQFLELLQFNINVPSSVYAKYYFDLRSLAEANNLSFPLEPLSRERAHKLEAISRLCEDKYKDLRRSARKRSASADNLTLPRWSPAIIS
# measurement_description: CDK16 kinase activity inhibition assay (ADP-Glo)
# recorded_conditions: read-out: CDK16 kinase inhibitory activity (IC50)
# Experimental: 3) CDK5, CDK9 and CDK16 Kinase Activity Inhibition Assay CDK5/p35NCK, CDK9/CycT1 and CDK16/CycY protein kinase activities were determined using the ADP-Glo Kinase Assay. […] The RLU (Relative luminescence unit) signal was read using a Biotek multifunctional plate reader. […]

Look over these answered cases.
• CC(=O)c1c(C)c2cnc(Nc3ccc4c(c3)OC[C@H]3CN(C5CCOCC5)CCN43)nc2n(C2CCCC2)c1=O [Compound 1R] = < 100 nM
• CC(=O)c1c(C)c2cnc(Nc3ccc4c(c3)OC[C@H]3CN(C5CCN(C(C)=O)CC5)CCN43)nc2n(C2CCCC2)c1=O [Compound 5R] = < 200 nM
• CC(=O)c1c(C)c2cnc(Nc3ccc4c(c3)OC[C@@H]3CN(C5CCNCC5)CCN43)nc2n(C2CCCC2)c1=O [Compound 3S] = < 50 nM
• CC(=O)c1c(C)c2cnc(Nc3ccc4c(c3)OC[C@@H]3CN(C5CCN(C)CC5)CCN43)nc2n(C2CCCC2)c1=O [Compound 2S] = < 100 nM
• CC(=O)c1c(C)c2cnc(Nc3ccc4c(c3)OC[C@@H]3CN(C5CN(C)C5)CCN43)nc2n(C2CCCC2)c1=O [Compound 7S] = < 100 nM

Identify the reported IC50 for the following entry. CCN1CCC(N2CCN3c4ccc(Nc5ncc6c(C)c(C(C)=O)c(=O)n(C7CCCC7)c6n5)cc4OC[C@@H]3C2)CC1 [Compound 4S]
< 100 nM
